B1: CPEB3 Ribozyme (parent)
chain: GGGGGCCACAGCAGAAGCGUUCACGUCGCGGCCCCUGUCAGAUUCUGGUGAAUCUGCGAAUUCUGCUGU

Variants of: B1
Assay: self-cleavage, relative activity (ratio to wild type); higher = more cleavage; co-transcriptional
PROPERTY MEASURED: self-cleavage

G2C C6G	0

Give me self-cleavage for each of these variants, listed below.
1. G11A G58U
2. U61A C66A
3. G3C G37A

1: 0.905; 2: 0.386; 3: 0.0325
